Sourced from patent US9340577B2

# System Under Test: DR1 (DRB1*0101) (Homo sapiens, UniProt P01903+P01911, A100R/D57E/F55L/F60I/F76Y/I96L/L162R/M171V/P40L/Q125E/R42F/V115G/Y59C)
# Protocol Description: biochemical
# Type: binding
pIC50: −log10 of the molar value. No end group written: not given here.
Measure: pIC50

INSERT INTO measurements (sequence_text, measure, relation_sign, observed_value) VALUES
  ('GEIYIIEEDTCTMVT [Peptide 90.0202]', 'pIC50', '=', 5.80),
  ('ESDMAFEYALLADSN [Peptide 90.0055]', 'pIC50', '=', 7.24),
  ('ELQMALKGLAQSKYN [Peptide 90.0005]', 'pIC50', '=', 7.09),
  ('ETEWVEPLTPSGAMP [Peptide 9014.0147]', 'pIC50', '=', 7.62),
  ('NASLLIQNSIQNDTG [Peptide 9014.0015]', 'pIC50', '=', 7.00),
  ('ETELVEPLLPSGAMP [Peptide 9014.0153]', 'pIC50', '=', 6.47),
  ('EYVLDLYPEPTDLYC [Peptide 1543.12]', 'pIC50', '=', 5.04),
  ('CWMIDSETRPRFREL [Peptide 9014.0226]', 'pIC50', '=', 6.43),
  ('YRHYQYSLYGKTLEE [Peptide 1543.58]', 'pIC50', '=', 7.96),
  ('CQAIELQLALEALNK [Peptide 90.0014]', 'pIC50', '=', 7.60),
  ('IHFLKGCIISYVNSK [Peptide 89.0147]', 'pIC50', '<', 4.70),
  ('LCVNSTASDLRTIQQ [Peptide 1543.15]', 'pIC50', '=', 5.80),
  ('IAYYYAQLADSNSNA [Peptide 89.0072]', 'pIC50', '=', 6.42),
  ('DRGVLILLLIRFKCG [Peptide 89.0099]', 'pIC50', '=', 7.70),
  ('IWEVHMENESIYCPD [Peptide 90.0237]', 'pIC50', '=', 5.75),
  ('LIRMECALLYTAKQM [Peptide 89.0179]', 'pIC50', '=', 6.00),
  ('QWAYDNDIVDDSEIA [Peptide 90.0036]', 'pIC50', '<', 4.70),
  ('SNLLSIPETCMVIEP [Peptide 89.0067]', 'pIC50', '=', 6.46),
  ('DWCVAAFGVTGTVAE [Peptide 89.0042]', 'pIC50', '=', 7.96),
  ('YFKYFKEDAKKYSKT [Peptide 90.0253]', 'pIC50', '=', 5.40),
  ('ETEIVEPLTPSGAMP [Peptide 9014.0144]', 'pIC50', '=', 6.32),
  ('DIAYKYAQLADVNSN [Peptide 89.0108]', 'pIC50', '=', 5.33),
  ('RETIEKLLSKLLCVS [Peptide 89.0006]', 'pIC50', '=', 6.70),
  ('NCILLYGAANTGKSL [Peptide 89.0017]', 'pIC50', '=', 7.09),
  ('KIFGSLTFLPESFDGDPA [Peptide 9014.0244]', 'pIC50', '=', 6.63),
  ('DMKYRLPASPETHLD [Peptide 9014.0131]', 'pIC50', '=', 6.11),
  ('LSHVKIPVVYRLVWD [Peptide 90.0020]', 'pIC50', '=', 7.10),
  ('QIQVFETLEET [Peptide 1385.01]', 'pIC50', '<', 4.70),
  ('TRPRTLHELCEVLEE [Peptide 1543.42]', 'pIC50', '=', 4.74),
  ('DDRWPYLHSRLVVFT [Peptide 89.0058]', 'pIC50', '=', 7.54),
  ('GTDMKLRLNASPETH [Peptide 9014.0101]', 'pIC50', '=', 6.65),
  ('RDSVDSAPILTAFNS [Peptide 89.0156]', 'pIC50', '=', 5.13),
  ('RLTVAKLMSNLLSIP [Peptide 89.0065]', 'pIC50', '=', 8.37),
  ('RNTFLDVVTIPNSVQ [Peptide 1601.39]', 'pIC50', '=', 6.26),
  ('CTLVAGEVDYVGLYY [Peptide 90.0252]', 'pIC50', '<', 4.70),
  ('QERPRKLPQLCTELQ [Peptide 1543.22]', 'pIC50', '<', 4.70),
  ('VHEGIRTYFVQFKDD [Peptide 1601.05]', 'pIC50', '=', 5.03),
  ('ITFLGALKSFLKGTP [Peptide 89.0034]', 'pIC50', '=', 7.74),
  ('QRFHNIRGRWTGRCM [Peptide 1543.27]', 'pIC50', '=', 7.44),
  ('GLYYWCDGEKIYFVK [Peptide 90.0226]', 'pIC50', '=', 6.16),
  ('NTTPIIHLKGDKNSL [Peptide 1601.37]', 'pIC50', '=', 6.07),
  ('TTIYNNEEWTLRDTC [Peptide 90.0232]', 'pIC50', '=', 4.97);
